measuredProperty: melting point

# molecule, melting point
data = [
    ("C[C@]1(COC(=O)N2CCCc3cc(Cl)ccc32)Cn2cc([N+](=O)[O-])nc2O1", "172 to 174 °C"),
]

Entry CCOC(=O)c1nc(NC)sc1C(=O)CC ; melting point = 84 to 86 °C

Entry CCSc1cc(C)nc(SCC)c1NC(=O)CCCCCCCCSc1nc2ccccc2[nH]1 ; melting point = 76 to 78 °C

Entry COC(=O)C1=C(C)NC(N)=C(C(=O)OC(C)C)C1c1ccccc1[N+](=O)[O-] (stereo not given) ; melting point = 203 °C

Entry Cc1nnc2n1-c1ccc([N+](=O)[O-])cc1C(c1ccccc1Cl)=NC2(C)C ; melting point = 283 °C

Entry Cc1cc(C)c2c(c1C)OC1(CCN(Cc3ccccc3)CC1)C2c1ccc(C(C)C)cc1 (stereo not given) ; melting point = 125 to 128 °C

Entry N=C(Nc1ccc(C(=O)O)cc1)Nc1nc(-c2ccccc2)cs1 ; melting point = 245 to 247 °C

----------
measuredProperty: melting point

# compound, melting point
rows = [
    ("COc1ccc(-c2nnc(C)nc2-c2ccc(OC)cc2)cc1", "109 to 113 °C"),
    ("CC(C)CCC(=O)N[C@@H](Cc1ccccc1)C(=O)CSCc1ccco1", "68 to 71 °C"),
    ("CC(=O)OC(C(C)C(C)C)C(OC(C)=O)C(C)C1CCC2C3CC(=O)C4CC=CCC4(C)C3CCC12C (stereo not given)", "210 to 213 °C"),
    ("N#Cc1c(C(F)(F)F)ccc(Cl)c1F", "43 to 44 °C"),
    ("CCCCN=c1cc2n(c(=O)n1C)CCc1cc(OC)c(OC)cc1-2", "120 to 121 °C"),
]

Entry O=S1(=O)CCN(c2nc(Cl)nc3c(Cl)ncnc23)CC1 ; melting point = 270 to 273 °C

Entry COC1CCc2c(C)c(O)c(C)c(C)c2O1 (stereo not given) ; melting point = 108 to 110 °C

Entry O=C1CCC(N2Cc3c(OCc4cc5cc(N6CCCCC6)ccc5o4)cccc3C2=O)C(=O)N1 (stereo not given) ; melting point = 242 to 244 °C

Entry CCn1ncnc1COc1nn2c(-c3c(F)cccc3F)nnc2cc1C(C)(C)C ; melting point = 182 °C

Entry CCOC(=O)Cc1cccc2c(-c3ccc(N)cc3)nccc12 ; melting point = 129 to 132 °C

----------
Entries and their melting point values follow.

Worked examples follow.
# compound, measuredProperty, result
data = [
    ("CCCOc1ccc(S(=O)(=O)NCc2ccncc2)cc1-c1nc2cc(N)c(N)cc2c(=O)[nH]1", "melting point", "157 to 160 °C"),
    ("COc1ccc2c(c1OC)C(=O)c1ccccc1-2", "melting point", "110 to 111 °C"),
    ("O=C(c1ccccc1)c1ccncc1Cl", "melting point", "49 to 51 °C"),
    ("COc1ccc(C(=O)c2cccc3c2ccn3S(=O)(=O)c2ccc(C)cc2)cc1", "melting point", "135 °C"),
    ("CN(C)C(=O)CCCOC(=O)C(OCc1ccc(-c2ccc(Cl)cc2)cc1)(C(F)(F)F)C(F)(F)F", "melting point", "54 to 55 °C"),
    ("N#Cc1cccc2nc(CCC#Cc3ccccn3)oc12", "melting point", "126 °C"),
    ("O=C1[C@@H]2[C@H](O)CCN2C(=O)N1c1ccc([N+](=O)[O-])c2ccccc12 (relative stereo)", "melting point", "255 to 257 °C"),
    ("N#Cc1cnc(N[C@H]2CC[C@H](O)CC2)c([N+](=O)[O-])c1", "melting point", "157 to 158 °C"),
]

Entry Clc1ccc(Oc2cc(Br)c(Cl)cc2OCc2ccccc2)c(Cl)c1 ; melting point = 86 to 88 °C

Entry CCOC(=O)c1[nH]c2cccc(C)c2c1Sc1ccc(Cl)cc1 ; melting point = 186 to 188 °C

----------
Entries and their melting point values follow.

Worked examples follow.
# compound, melting point
measured = [
    ("CCc1ccccc1N1CCN(C(=S)Nc2nc3ccccc3nc2OC)CC1", "141 to 143 °C"),
    ("CCCOC(=O)Nc1nc2ccccc2c2c1nc(CC)n2CCCCNS(C)(=O)=O", "155 to 157 °C"),
    ("Cc1nc2cccc(N)c2c(=O)n1[C@@]1(C)CCC(=O)NC1=O", "295 to 297 °C"),
    ("CC(=O)c1ccc(-c2ccc(C#N)cc2)o1", "115 to 116 °C"),
]

Entry COc1cc(Nc2c(C#N)cnc3cc4cc(OCCN5CCOCC5)c(OC)cc4cc23)c(Cl)cc1C ; melting point = 220 to 222 °C

----------
Entries and their melting point values follow.
Give the value in °C but do not write °C after it.

Worked examples follow.
# compound, measuredProperty, valueUnits, readoutNumber
measured = [
    ("COCOc1c(-c2ccc(C(=O)O)cc2)cccc1-c1ccc2c(c1)C(C)(C)CCC2(C)C", "melting point", "°C", 74),
    ("CCOC(=O)c1ccccc1Cn1c(C(=O)O)cc2ccccc21", "melting point", "°C", 136),
]

Entry COc1cc(Cc2cnc(N)nc2N)cc(-c2ccc(O)cc2)c1OC ; melting point = 233

Entry CN1CCC(OC(c2ccccc2)c2nc3cccc(O)c3[nH]2)CC1 (stereo not given) ; melting point = 170

----------
Entries and their melting point values follow.

Entry COC(=O)NS(=O)(=O)c1ncccc1C(F)(F)F ; melting point = 128 to 129 °C

Entry O=c1ccc(-c2cc(F)c(OC3CCN(C4CCC4)CC3)c(F)c2)n[nH]1 ; melting point = 195 to 197 °C

Entry CS(=O)(=O)c1ccc(C(Cc2ccc(F)cc2)C(=O)Nc2nc3ccccc3o2)cc1 (stereo unspecified) ; melting point = 109 to 110 °C

Entry CC(C)(C)C1=NN(c2ccc(C(=O)O)cc2)C(c2ccccc2F)C1 (stereo unspecified) ; melting point = 225 °C

Entry CCCCC(=O)c1ccc(Cl)c(Cl)c1 ; melting point = 40 to 41 °C

Entry CCOC(=O)Cc1cc(CC)c(C(=O)c2ccc(Cl)cc2)n1C ; melting point = 73 to 75 °C

Entry NS(=O)(=O)c1ccc(-c2cc(-c3nc(-c4ccc(C(F)(F)F)nc4)cc(C(F)F)n3)ccn2)s1 ; melting point = 270 °C

Entry N#Cc1ccc(C(=O)NNc2c(Cl)cc(C(F)(F)F)cc2Cl)cc1 ; melting point = 185 to 186 °C

Entry COC(=O)CN(C)CCNC(=O)c1nc(Cl)c(N)nc1N ; melting point = 132 to 134 °C

Entry CCOc1cc2ncnc(N3CCN(C(=O)Nc4ccc([N+](=O)[O-])cc4)CC3)c2cc1OCC ; melting point = 120 to 121 °C

----------
Entries and their melting point values follow.

Worked examples follow.
# molecule, melting point
measured = [
    ("CCOC(=O)c1cnn(-c2ccc(Cl)cc2Cl)c1C(F)(F)F", "81 to 83 °C"),
    ("COc1cc(C(C)N(O)C(N)=O)cc(OC)c1OC(C)c1ccccc1 (stereo not given)", "129 to 132 °C"),
    ("Cc1cn2c(C)nc3c(C)nn(C)c3c2n1", "198 to 200 °C"),
]

As a next step, examine the molecule that follows.
Entry Cc1ccc2c(c1O)NC(O)C1CCCN1C2=O (stereo not given) ; melting point = 154 to 156 °C

----------
Entries and their melting point values follow.

Worked examples follow.
# compound, result
measured = [
    ("CC1(C(=O)O)COC2(CCCCCCC2)OC1", "120 to 122 °C"),
    ("CN(C)S(=O)(=O)n1cc(-c2ccc(Cl)cc2Cl)nc1C1=NC(=O)C(=O)S1", "158 °C"),
    ("CC[C@H]1c2ccc(C#N)n2-c2cc(F)c(F)cc2N1S(=O)(=O)c1ccc(OS(N)(=O)=O)cc1", "196 to 201 °C"),
    ("CCC(C)C(C(=O)O)n1sc2ccccc2c1=O (stereo unspecified)", "50 to 52 °C"),
]

Entry Nc1cc(N2CCCCC2)ccc1[N+](=O)[O-] ; melting point = 100 to 101 °C

Entry C(=C\c1nc(COc2ccc(CCn3ccnc3)cc2)co1)/c1ccccc1 ; melting point = 165 to 166 °C

----------
measuredProperty: melting point

# molecule, measuredProperty, result
measured = [
    ("CC(SSc1ccccc1C(=O)Nc1ccc(S(N)(=O)=O)cc1)C(=O)NCC(=O)O (stereo not given)", "melting point", "254 to 256 °C"),
    ("O=C(Nc1ccc(OC(F)(F)F)cc1)NC1CCNCC1", "melting point", "169 to 173 °C"),
    ("O=C(O)c1cnccc1-c1ccccc1", "melting point", "245 to 246 °C"),
]

Entry CS(=O)(=O)Nc1cccc(Nc2nc(NCC3CCCCN3)c3nc[nH]c3n2)c1 (stereo not given) ; melting point = 147 to 150 °C
